# METHOD: qHTS assay to identify small molecule antagonists of the estrogen receptor alpha (ER-alpha) signaling pathway using the BG1 cell line (AID 743080);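 note: BG1 cells stimulated with 17beta-estradiol alongside compound; nearly all actives have a fitted effect of over 25% in size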
# STUDY_CONDITIONS: BG1Luc4E2 ERE-luciferase antagonist mode, luminescence; series mostly up to 70.3 µM
Results filed as inconclusive are left out. Active and inactive are the calls of the source. Calls come from the whole dose curve.
EXPERIMENTAL_ENDPOINT: Potency

Please review the following examples before continuing.
MOLECULE	RECORDED_RESULT
Cc1nc(N)nc(N)n1	inactive
CSc1ccc(C(=O)C(C)(C)N2CCOCC2)cc1	inactive
C[N+](C)=CCl	inactive
CCN(Cc1ccc(Cl)nc1)/C(=C/[N+](=O)[O-])NC	inactive

Here's the next entry for you.
Recorded Potency (molecule CCOP(=S)(OCC)Oc1ncn(-c2ccccc2)n1 ): inactive

###

# METHOD: qHTS RealTime-Glo MT Cell Viability Assay in HepG2 cells - 0 hour (AID 1224889); note: nearly all actives have a fitted effect of over 50% in size
# STUDY_CONDITIONS: RealTime-Glo luminescence; series mostly up to 76.8 µM
Results filed as inconclusive are left out. Activity calls are given as the source filed them. Calls follow the shape of the dose curve; as a rule, active = well fitted cell-killing curve with a large enough effect in the repeat runs; inconclusive = weak or mixed curves, or effect the other way; inactive = flat fitted curve, though single readings scatter.
Please state which outcome applies, choosing from 1 = active, 0 = inactive

Ask: Query: recorded result category for CCCCCCI in this test
Reply: 0

Ask: Query: recorded result category for COP(=S)(OC)Oc1c(Cl)cc(C)cc1Cl in this test
Reply: 0

Ask: Query: recorded result category for CC(Oc1ccc(Oc2ncc(C(F)(F)F)cc2Cl)cc1)C(=O)O (stereo unspecified) in this test
Reply: 0

###

# METHOD: qHTS assay to identify small molecule antagonists of the peroxisome proliferator-activated receptor delta (PPARd) signaling pathway - cell viability counter screen (AID 743213); note: nearly all actives have a fitted effect of over 50% in size
# STUDY_CONDITIONS: PPARd-bla HEK293H viability, CellTiter-Glo luminescence, 17 h; series mostly up to 62 µM
Results filed as inconclusive are left out. Calls of active or inactive are those of the source. Calls follow the shape of the dose curve; as a rule, active = well fitted cell-killing curve with a large enough effect in the repeat runs; inconclusive = weak or mixed curves; inactive = no such curve, though single readings can be large or run the other way.
EXPERIMENTAL_ENDPOINT: outcome

Please review the following examples before continuing.
LINE_NOTATION	RECORDED_RESULT
Nc1ccccc1Cl	inactive
C=C(C)[C@@H]1CC=C(C=O)CC1	inactive
CN(N=O)C(N)=O	inactive
COC(=O)c1ccccc1S(=O)(=O)NC(=O)Nc1nc(C)cc(C)n1	inactive
COc1ncc(F)c2nc(S(=O)(=O)Nc3c(F)cccc3F)nn12	inactive

Recorded outcome (compound C[C@]12CC[C@H]3[C@@H](CCC4=CC(=O)CC[C@@]43C)[C@@H]1CC[C@@H]2C(=O)O ): inactive

Recorded outcome (compound N#CCNCC#N ): inactive

Recorded outcome (compound NC(=S)C(N)=S ): inactive

Recorded outcome (compound CC(=O)[C@H]1CC[C@H]2[C@@H]3CC[C@H]4C[C@H](O)CC[C@]4(C)[C@H]3C(=O)C[C@]12C ): inactive

Recorded outcome (compound O=C1c2ccccc2C(=O)c2ccccc21 ): inactive

###

# TARGET_OR_SYSTEM: Cytochrome P450 2C9 (Homo sapiens) (UniProt P11712)
# Sequence (P11712 whole entry, looked up): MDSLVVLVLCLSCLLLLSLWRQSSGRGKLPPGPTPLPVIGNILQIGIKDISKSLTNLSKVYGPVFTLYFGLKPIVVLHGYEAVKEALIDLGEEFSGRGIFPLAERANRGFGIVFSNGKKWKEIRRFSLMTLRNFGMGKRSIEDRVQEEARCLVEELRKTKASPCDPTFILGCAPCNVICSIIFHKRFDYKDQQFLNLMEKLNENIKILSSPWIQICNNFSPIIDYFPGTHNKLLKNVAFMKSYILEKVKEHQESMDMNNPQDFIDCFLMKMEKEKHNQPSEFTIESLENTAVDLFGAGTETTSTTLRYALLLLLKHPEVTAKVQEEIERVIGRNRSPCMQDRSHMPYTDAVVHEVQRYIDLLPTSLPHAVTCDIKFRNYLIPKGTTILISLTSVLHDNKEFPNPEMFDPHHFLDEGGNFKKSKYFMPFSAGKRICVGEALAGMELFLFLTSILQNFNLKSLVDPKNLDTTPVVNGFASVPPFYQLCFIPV
# METHOD: Cytochrome P450 Family 2 Subfamily C Member 9 (CYP2C9) small molecule antagonists: luciferase reporter qHTS assay (AID 1671198); note: nearly all actives have a fitted effect of over 50% in size
# STUDY_CONDITIONS: P450-Glo CYP2C9 enzyme assay, luciferin luminescence; series mostly up to 115 µM
# From the text: U.S. Tox21 Program National Center for Advancing Translational Sciences [NCATS] U.S. Environmental Protection Agency [EPA] National Institutes of Environmental Health Sciences [NIEHS] National Toxicology Program [NTP] U.S. Food and Drug Administration [FDA] […] The luciferin products formed are detected with a luciferin detection reagent, and the amount of light produced is proportional to CYP activity. […]
Records with an inconclusive call do not appear. Calls of active or inactive are those of the source. Calls come from the whole dose curve; as a rule, active = well fitted inhibition curve with a large enough effect in the repeat runs; inconclusive = weak or mixed curves; inactive = no such curve, though single readings can be large or run the other way.
Please state which outcome applies, choosing from active, inactive

Worked cases, answers included:
MOLECULE	QUALITATIVE_LABEL
CCN(CC)C(C)C(=O)c1ccccc1 (stereo not given)	inactive
CCOC(=O)/C=C(C)/C=C/C[C@@H](C)CCCC(C)C	active
Cc1ccccc1CO[C@@H]1C[C@@]2(C(C)C)CC[C@]1(C)O2	active
N#Cc1ccncc1	inactive
CCS(=O)(=O)CCSP(=O)(OC)OC	inactive

Ask: Query: recorded result category for CC(CC(C#N)(c1ccccc1)c1ccccc1)N(C)C (stereo not given) in this test
Reply: inactive

Ask: Query: recorded result category for Fc1ccc(C2(Cn3cncn3)OC2c2ccccc2Cl)cc1 (stereo not given) in this test
Reply: active

Ask: Query: recorded result category for Cc1cccc(C#N)c1 in this test
Reply: inactive

Ask: Query: recorded result category for ClC(Cl)C(Cl)Cl in this test
Reply: inactive

Ask: Query: recorded result category for CC(C)[N+](=O)[O-] in this test
Reply: inactive

Ask: Query: recorded result category for CCCSC(=O)Cl in this test
Reply: inactive

Ask: Query: recorded result category for CN1CCC(O)(c2ccc(F)cc2)C(C(=O)c2ccc(F)cc2)C1 (stereo not given) in this test
Reply: inactive

Ask: Query: recorded result category for CCN(Cc1ccc(Cl)nc1)/C(=C/[N+](=O)[O-])NC in this test
Reply: inactive

Ask: Query: recorded result category for O=[N+]([O-])c1ccc2c3c(cccc13)CC2 in this test
Reply: inactive

Ask: Query: recorded result category for OCCSCSCCO in this test
Reply: inactive
